// provenance: PubChem BioAssay (NCI)

Exercise: state measured growth inhibition for each of the molecules provided.
experiment: NCI Yeast Anticancer Drug Screen. Data for the bub3 strain (AID 167); conditions: S. cerevisiae bub3 mutant strain, at 50.0 µM, hits give high values
About 79,000 compounds went through this panel and 15% of them were active in at least one assay; those are over-represented in the sample as a whole.
Write down the numeric answer in % and omit the unit.

Reported growth inhibition, molecule N#CC1CCCC(c2ccccc2)(C2CCCCC2)C1=O (configuration not stated) : ____ 2.85

Reported growth inhibition, molecule CSc1ccc(OC(=O)Nc2cc(Cl)ccc2C)cc1 : ____ 38

Reported growth inhibition, molecule Cc1onc(-c2c(Cl)cccc2Cl)c1C(=O)Nc1ccc(Cl)c(Cl)c1Cl : ____ 2.25

Reported growth inhibition, molecule Cc1ccc(S(=O)(=O)c2ccccn2)cc1 : ____ -13

Reported growth inhibition, molecule [N-]=[N+]=CC(=O)C1OC1c1ccc(Br)cc1 (configuration not stated) : ____ -0.25

Reported growth inhibition, molecule Nc1ccc(C(=O)Nc2cccc(OCc3nc(N)nc(N)c3-c3ccc(Cl)cc3)c2)cc1 : ____ 2.3

Reported growth inhibition, molecule Cc1ccc(S(=O)(=O)N/N=C(\c2nc3ccc([N+](=O)[O-])cc3[nH]c2=O)C(O)c2ccccc2Cl)cc1 (configuration not stated) : ____ 10.3

Reported growth inhibition, molecule COC(=O)c1ccc(SCCC(C)=O)cc1 : ____ 25.9

Reported growth inhibition, molecule O=C(O)Cc1ccc(Oc2ccc(CC(=O)O)cc2)cc1 : ____ -8.75

Reported growth inhibition, molecule CC12CCC(CC1)C2(C)C : ____ 4.75

Reported growth inhibition, molecule Brc1ccccc1/C=N\N=C\c1ccccc1Br : ____ -6.4

Reported growth inhibition, molecule CSCCC(N)C(=O)NCCNc1ccc(NCCNC(=O)C(N)CCSC)c2c1C(=O)c1ccccc1C2=O (configuration not stated) : ____ -30.4

Reported growth inhibition, molecule Cc1cccc(Cl)c1NC(=O)COc1ccc(Cl)cc1 : ____ 30.9

Reported growth inhibition, molecule ClCC1CCCO1 (configuration not stated) : ____ 24.9

Reported growth inhibition, molecule Cc1cccc(C)c1NC(=S)NC=C(C(N)=O)C(N)=O : ____ -14.4

Reported growth inhibition, molecule CCCCOC(=O)CCc1nc2c([nH]1)c(=O)n(C)c(=O)n2C : ____ 9.65

Reported growth inhibition, molecule C[n+]1ccc(/C(C#N)=N/O)cc1 : ____ -25.8

Reported growth inhibition, molecule CN(C)C1CS(=O)(=O)C1c1ccccc1 (configuration not stated) : ____ 8.3

Reported growth inhibition, molecule O=S(=O)(c1ccccc1)N1CCCCN(S(=O)(=O)c2ccccc2)COC1 : ____ -7.45

Reported growth inhibition, molecule CCCCCCC[CH2][Sn]1([CH2]CCCCCCC)[O]C(=O)c2cccnc2[O]1 : ____ 17.2

Reported growth inhibition, molecule CCCCCCCCCCCCC(F)C(=O)OCC1OC(n2cc(C)c(=O)[nH]c2=O)CC1N=[N+]=[N-] (configuration not stated) : ____ 10.7

Reported growth inhibition, molecule CCCCOCN1COCN(COCCCC)C1=O : ____ 18.1

Reported growth inhibition, molecule FC(F)(F)c1nc(Cl)c2cn[nH]c2n1 : ____ 25.9

Reported growth inhibition, molecule CCS(=O)CCCN1CCc2ccccc2C1 (configuration not stated) : ____ -3

Reported growth inhibition, molecule C[n+]1ccc2c(Br)cccc2c1 : ____ -1

Reported growth inhibition, molecule Cc1c(O)c(=O)ccn1C1OC(CO)C(O)C1O (configuration not stated) : ____ 15.8

Reported growth inhibition, molecule BrC1=C(c2ccccc2)SC(Br)=C(c2ccccc2)S1 : ____ 5.45

Reported growth inhibition, molecule O=C(NCCNC(=O)c1cc(Cl)cc(Cl)c1O)c1cc(Cl)cc(Cl)c1O : ____ -4.9

Reported growth inhibition, molecule COc1cc(CNc2nc3c(N)cc(C(F)(F)F)cc3nc2-c2ccccc2)cc(OC)c1OC : ____ -11.3

Reported growth inhibition, molecule CCC1SCC(=O)N1c1nncs1 (configuration not stated) : ____ 2.75

Reported growth inhibition, molecule COC(=O)N(c1ccccc1)c1ccccn1 : ____ 4.3

Reported growth inhibition, molecule NNC(=S)N/N=C\c1ccnc2ccccc12 : ____ 30.2

Reported growth inhibition, molecule CCC([NH-])(CC)C[NH-].[Cl][Pt+2][Cl] : ____ -14.1

Reported growth inhibition, molecule CC(=O)Oc1ccc2c(c1)c1c(OC(C)=O)c(N(C)C(C)=O)cc(OC(C)=O)c1n2C : ____ -3.7

Reported growth inhibition, molecule Cc1ccc(-c2n[nH]c(=O)n2N)cc1 : ____ 0.45

Reported growth inhibition, molecule CSc1ncc2c(n1)-c1ccccc1OC2N1CCCCC1 (configuration not stated) : ____ 23.4

Reported growth inhibition, molecule C/C(=N/NC(=O)C(N)=O)C(CC(C(=O)Nc1ccccc1C)/C(C)=N\NC(=O)C(N)=O)C(=O)Nc1ccccc1C (configuration not stated) : ____ 8.05

Reported growth inhibition, molecule N=C(N)SCC(O)c1ccccc1 (configuration not stated) : ____ -3.1

Reported growth inhibition, molecule CS(=O)(=O)N(CCC#N)c1ccc(C=O)cc1 : ____ -12.2

Reported growth inhibition, molecule O=C1CCCS(=O)(=O)CCC1 : ____ 0.9

Reported growth inhibition, molecule NC(=O)N/N=C/C(/C=N/NC(N)=O)[N+](=O)[O-] : ____ -14.6

Reported growth inhibition, molecule Nc1nc2[nH]c(=O)c(C(=O)O)nc2c(=O)[nH]1 : ____ 10.4

Reported growth inhibition, molecule CC(=O)OCC1OC(Oc2ccccc2)C(OC(C)=O)C(OC(C)=O)C1OC(C)=O (configuration not stated) : ____ -4.1

Reported growth inhibition, molecule CC12CCC3C(CCC4CC(OC5CCCCO5)CCC43C)C1CC/C2=C/C#N (configuration not stated) : ____ 1.75

Reported growth inhibition, molecule CO[C@H]1C=CO[C@@]2(C)Oc3c(C)c(O)c4c(O)c(c(CN5CCN(C)CC5)c(O)c4c3C2=O)NC(=O)/C(C)=C\C=C[C@H](C)[C@H](O)C(C)[C@@H](O)C(C)[C@H](OC(C)=O)[C@@H]1C (some centres not stated) : ____ -36.2

Reported growth inhibition, molecule N#C/C(=C/NC(=S)Nc1ccccc1)C(N)=O : ____ -15.7

Reported growth inhibition, molecule CCOC(=O)/C(F)=C/c1cccc([N+](=O)[O-])c1 : ____ 7.95
